# credit: ChEMBL document CHEMBL4725289

Biological target: Patatin-like phospholipase domain-containing protein 2 (Mus musculus)
Sequence (whole entry): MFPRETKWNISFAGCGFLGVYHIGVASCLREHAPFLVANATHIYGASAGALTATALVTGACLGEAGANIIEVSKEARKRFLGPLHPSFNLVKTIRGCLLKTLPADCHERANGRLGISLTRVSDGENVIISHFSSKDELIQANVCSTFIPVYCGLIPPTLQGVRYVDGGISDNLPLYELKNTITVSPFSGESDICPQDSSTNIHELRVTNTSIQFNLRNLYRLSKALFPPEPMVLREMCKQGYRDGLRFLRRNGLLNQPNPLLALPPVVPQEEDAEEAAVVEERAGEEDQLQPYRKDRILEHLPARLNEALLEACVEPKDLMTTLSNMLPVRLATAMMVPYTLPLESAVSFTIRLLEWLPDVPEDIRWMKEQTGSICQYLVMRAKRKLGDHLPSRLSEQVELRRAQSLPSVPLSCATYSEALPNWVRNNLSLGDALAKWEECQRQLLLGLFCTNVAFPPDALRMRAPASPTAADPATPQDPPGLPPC
Test: Inhibition of murine ATGL at 200 uM relative to control
METRIC NAME: inhibition (%)
The response must be a number in % with no trailing unit.

Tested on Patatin-like phospholipase domain-containing protein 2 (Mus musculus), the item CCOc1ccc(-n2cc(O)c(C(=O)O)n2)cc1 showed inhibition equal to 15

Given the compound CCOC(=O)c1nn(-c2ccc(OCC)cc2)cc1OC and test system Patatin-like phospholipase domain-containing protein 2 (Mus musculus), the measured inhibition is 63

Noted inhibition for CCCCOC(=O)c1nn(-c2ccc(OCC)cc2)cc1O , tested on Patatin-like phospholipase domain-containing protein 2 (Mus musculus): 74

Sample CCOc1ccc(-n2cc(O)c(C(=O)OC)n2)cc1 , system: Patatin-like phospholipase domain-containing protein 2 (Mus musculus). Its inhibition is 64

Fill in: Patatin-like phospholipase domain-containing protein 2 (Mus musculus) inhibition for CCOC(=O)c1ccn(-c2ccc(OCC)cc2)n1 = 89

Case CCOC(=O)c1nn(-c2ccc(OCC)cc2)cc1O , Patatin-like phospholipase domain-containing protein 2 (Mus musculus), inhibition recorded as 67
